- system name: GPR73 (prokineticin 1 receptor) (Homo sapiens, UniProt Q8TCW9)
- Construct: expressed in transfected cells; host or cells: HEK 293
- Sequence (Q8TCW9 whole entry, species assumed): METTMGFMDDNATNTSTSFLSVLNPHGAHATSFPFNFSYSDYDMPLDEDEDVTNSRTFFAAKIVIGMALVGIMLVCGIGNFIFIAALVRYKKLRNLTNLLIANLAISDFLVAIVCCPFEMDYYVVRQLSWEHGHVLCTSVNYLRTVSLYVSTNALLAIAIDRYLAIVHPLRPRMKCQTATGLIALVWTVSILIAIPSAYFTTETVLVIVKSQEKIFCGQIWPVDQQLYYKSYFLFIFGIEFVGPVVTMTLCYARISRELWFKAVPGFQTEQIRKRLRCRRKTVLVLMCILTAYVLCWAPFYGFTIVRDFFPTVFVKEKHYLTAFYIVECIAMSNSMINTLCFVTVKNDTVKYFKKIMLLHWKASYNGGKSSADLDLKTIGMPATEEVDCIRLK
- measurement description: PK1 functional assay: Ca2+ mobilization on the FLIPR
- Type: cell-based
- measurement context: 10 µM; (further determination); read-out: Ca^2+ Mobilization % Inh @10 µM
outcome measure: inhibition at 10 µM (%)
Please state the figure in %; there is no need to write the unit.

Worked cases, answers included:
smiles input | result unit | inhibition at 10 µM
Nc1ncc(CCNc2nc(=O)n(Cc3ccc(F)cc3)c(=O)n2Cc2ccc(OC(F)(F)F)cc2)[nH]1 | % | 95
COc1ccc(Cn2c(NCCn3ccnc3N)nc(=O)n(Cc3ccc(F)cc3)c2=O)cc1 | % | 97
Nc1ncc(CCNc2nc(=O)n(Cc3ccc(F)cc3)c(=O)n2Cc2ccc(OC(F)F)cc2)[nH]1 | % | 100
Nc1nccn1CCNc1nc(=O)n(Cc2ccc(F)cc2)c(=O)n1Cc1ccc(OC(F)F)cc1 | % | 97

We next turn to a different compound, shown below.
Consider the compound shown here: Nc1nc2ccccc2n1CCNc1nc(=O)n(Cc2ccc(F)cc2)c(=O)n1Cc1ccc(OC(F)(F)F)cc1 What is its recorded inhibition at 10 µM?
100
